Exercise: state measured log10 of IC50 for each of the compounds provided.
SYSTEM: Akt3 (Homo sapiens, UniProt Q9Y243)
Sequence (Q9Y243 whole entry): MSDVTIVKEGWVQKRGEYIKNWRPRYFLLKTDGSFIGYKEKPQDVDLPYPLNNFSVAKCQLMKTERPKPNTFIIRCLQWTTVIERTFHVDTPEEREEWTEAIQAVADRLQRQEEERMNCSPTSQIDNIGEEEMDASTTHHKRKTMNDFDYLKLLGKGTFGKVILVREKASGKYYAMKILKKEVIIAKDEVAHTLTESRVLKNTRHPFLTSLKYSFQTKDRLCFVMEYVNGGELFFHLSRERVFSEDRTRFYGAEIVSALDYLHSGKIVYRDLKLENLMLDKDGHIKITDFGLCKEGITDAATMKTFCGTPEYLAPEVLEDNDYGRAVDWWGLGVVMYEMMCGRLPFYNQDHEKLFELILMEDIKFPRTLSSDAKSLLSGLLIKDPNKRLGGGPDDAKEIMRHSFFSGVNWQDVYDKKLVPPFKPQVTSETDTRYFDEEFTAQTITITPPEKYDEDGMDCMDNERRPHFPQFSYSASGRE
METHOD: STK HTRF KinEASE activity-based assay (IC50)
TEST PARAMETERS: IC50 Akt3, HTRF, ATP at KM, 1 h preincubation
Lab note - IC50 converted to log10 from values in µM.

>>> recorded_value("C=CC(=O)Nc1ccc2[nH]c(=O)n(C3CCN(Cc4ccc(-c5ncc(CNCC(C)C)cc5-c5ccccc5)cc4)CC3)c2c1")
0.92
>>> recorded_value("C=CC(=O)Nc1ccc2[nH]c(=O)n(C3CCN(Cc4ccc(-c5ncc(Cc6ccc(N)cc6)cc5-c5ccccc5)cc4)CC3)c2c1")
0.18
>>> recorded_value("C=CC(=O)Nc1ccc2[nH]c(=O)n(C3CCN(Cc4ccc(-c5ncc(C(=O)Nc6cccnc6)cc5-c5ccccc5)cc4)CC3)c2c1")
0.48
>>> recorded_value("C=CC(=O)Nc1ccc2[nH]c(=O)n(C3CCN(Cc4ccc(-c5ncc(Cc6cn[nH]c6)cc5-c5ccccc5)cc4)CC3)c2c1")
-0.45

Dear colleague, could you send me log10 of IC50 for each of the items below? Thanks.
1. C=CC(=O)Nc1ccc2[nH]c(=O)n(C3CCN(Cc4ccc(-c5ncc(Cc6ccc(C)o6)cc5-c5ccccc5)cc4)CC3)c2c1
2. C=CC(=O)Nc1ccc2[nH]c(=O)n(C3CCN(Cc4ccc(-c5ncc(Cc6cnn(C)c6)cc5-c5ccccc5)cc4)CC3)c2c1
3. C=CC(=O)Nc1ccc2[nH]c(=O)n(C3CCN(Cc4ccc(-c5ncc(C(=O)OC)cc5-c5ccccc5)cc4)CC3)c2c1
4. C=CC(=O)Nc1ccc2[nH]c(=O)n(C3CCN(Cc4ccc(-c5ncccc5-c5ccccc5)cc4)CC3)c2c1
5. C=CC(=O)Nc1ccc2[nH]c(=O)n(C3CCN(Cc4ccc(-c5ncc(C(=O)Nc6cnn(C)c6)cc5-c5ccccc5)cc4)CC3)c2c1
6. C=CC(=O)Nc1ccc2[nH]c(=O)n(C3CCN(Cc4ccc(-c5ncc(C(=O)NCC(C)C)cc5-c5ccccc5)cc4)CC3)c2c1
7. C=CC(=O)Nc1ccc2[nH]c(=O)n(C3CCN(Cc4ccc(-c5ncc(C(=O)Nc6cccc(N)c6)cc5-c5ccccc5)cc4)CC3)c2c1

1: 0.64; 2: -0.22; 3: 0.53; 4: 0.82; 5: 0.55; 6: 0.19; 7: 0.72

###

SYSTEM: UniProtKB P31751
METHOD: PhosphoSens continuous fluorometric kinetic enzyme assay
TEST PARAMETERS: Ki Akt2, Mean, mean of replicates
MEASURED QUANTITY: pKi
One number for each entry, as −log10 of the molar value.

Look over these answered cases.
>>> recorded_value("C=CC(=O)Nc1ccc2[nH]c(=O)n(C3CCN(Cc4ccc(-c5ncc(Cc6cn[nH]c6)cc5-c5ccccc5)cc4)CC3)c2c1 [compound 14]")
7.98
>>> recorded_value("C=CC(=O)Nc1ccc2[nH]c(=O)n(C3CCN(Cc4ccc(-c5ncc(C(=O)Nc6cccnc6)cc5-c5ccccc5)cc4)CC3)c2c1 [compound 22]")
7.97
>>> recorded_value("C=CC(=O)Nc1ccc2[nH]c(=O)n(C3CCN(Cc4ccc(-c5ncc(C(=O)NCC(C)C)cc5-c5ccccc5)cc4)CC3)c2c1 [compound 10]")
8.38
>>> recorded_value("C=CC(=O)Nc1ccc2[nH]c(=O)n(C3CCN(Cc4ccc(-c5ncc(Cc6ccc(N)nc6)cc5-c5ccccc5)cc4)CC3)c2c1 [compound 20]")
7.03
>>> recorded_value("C=CC(=O)Nc1ccc2[nH]c(=O)n(C3CCN(Cc4ccc(-c5ncc(Cn6ccnc6)cc5-c5ccccc5)cc4)CC3)c2c1 [compound 11]")
7.99

# return pKi for each item in the list
1. C=CC(=O)Nc1ccc2[nH]c(=O)n(C3CCN(Cc4ccc(-c5ncc(Cc6cccnc6)cc5-c5ccccc5)cc4)CC3)c2c1 [compound 21]
2. C=CC(=O)Nc1ccc2[nH]c(=O)n(C3CCN(Cc4ccc(-c5ncc(C(=O)Nc6cnn(C)c6)cc5-c5ccccc5)cc4)CC3)c2c1 [compound 13]

[7.67, 7.39]

Consider the compound C=CC(=O)Nc1ccc2[nH]c(=O)n(C3CCN(Cc4ccc(-c5ncc(C(=O)Nc6cccc(N)c6)cc5-c5ccccc5)cc4)CC3)c2c1 [compound 18] tested on UniProtKB P31751; state its pKi. 7.95

###

METHOD: CellTiter-Glo cell viability assay
Format: cell-based, murine
TEST PARAMETERS: mouse, CTG, parental, 5000 nM, single replicates
MEASURED QUANTITY: viability at 3 days, 5 µM

State its viability at 3 days, 5 µM: C=CC(=O)Nc1ccc2[nH]c(=O)n(C3CCN(Cc4ccc(-c5nc6cc[nH]c(=O)c6cc5-c5ccccc5)cc4)CC3)c2c1 [Borussertib, reference compound] 108%

###

SYSTEM: Akt1 (Homo sapiens, UniProt P31749)
Sequence (P31749 whole entry): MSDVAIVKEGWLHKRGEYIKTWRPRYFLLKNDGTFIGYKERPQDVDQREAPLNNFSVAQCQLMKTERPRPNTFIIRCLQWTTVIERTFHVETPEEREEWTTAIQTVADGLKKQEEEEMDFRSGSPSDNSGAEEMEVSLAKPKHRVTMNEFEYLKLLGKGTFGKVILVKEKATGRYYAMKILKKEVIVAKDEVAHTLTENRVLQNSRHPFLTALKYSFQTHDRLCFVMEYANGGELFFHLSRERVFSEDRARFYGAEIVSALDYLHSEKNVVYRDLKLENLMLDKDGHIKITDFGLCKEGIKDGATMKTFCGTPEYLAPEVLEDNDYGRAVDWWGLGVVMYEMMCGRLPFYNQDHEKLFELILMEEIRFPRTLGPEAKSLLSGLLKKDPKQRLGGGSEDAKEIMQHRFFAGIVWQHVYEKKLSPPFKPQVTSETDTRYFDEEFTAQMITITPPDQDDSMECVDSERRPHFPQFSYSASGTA
METHOD: STK HTRF KinEASE activity-based assay (IC50)
TEST PARAMETERS: read-out: HTRF IC50 Akt1, Mean; mean of replicates
MEASURED QUANTITY: IC50 (µM)
Give bare numbers, in µM.

Recall the reported IC50 of C=CC(=O)Nc1ccc2[nH]c(=O)n(C3CCN(Cc4ccc(-c5ncc(C(=O)O)cc5-c5ccccc5)cc4)CC3)c2c1 [compound 4] on Akt1 (Homo sapiens, UniProt P31749) and write it down. 0.0443

###

Can you tell me EC50 for the items I'm about to list?
Tested on: Ba/F3^myr-Akt2 cells
METHOD: CellTiter-Glo cell viability assay
TEST PARAMETERS: Mus musculus, read-out: CTG BaF3myr-Akt2, Mean, mean of replicates
Numbers only, in µM.

Solved entries (count: 2):
>>> recorded_value("C=CC(=O)Nc1ccc2[nH]c(=O)n(C3CCN(Cc4ccc(-c5ncc(Cn6ccnc6)cc5-c5ccccc5)cc4)CC3)c2c1")
2.69
>>> recorded_value("C=CC(=O)Nc1ccc2[nH]c(=O)n(C3CCN(Cc4ccc(-c5ncc(C(=O)NCC(C)C)cc5-c5ccccc5)cc4)CC3)c2c1")
7.99

Now take the following compound into account.
Specify EC50 for C=CC(=O)Nc1ccc2[nH]c(=O)n(C3CCN(Cc4ccc(-c5ncc(C(=O)NC)cc5-c5ccccc5)cc4)CC3)c2c1 and stop. 10.8

###

SYSTEM: Akt1 (Homo sapiens)
METHOD: STK HTRF KinEASE activity-based assay (IC50)
TEST PARAMETERS: IC50 Akt1, HTRF, ATP at KM, 1 h preincubation
MEASURED QUANTITY: IC50 (nM)
Answers are plain numbers, in nM.

Some compounds with recorded IC50:
>>> recorded_value("C=CC(=O)Nc1ccc2[nH]c(=O)n(C3CCN(Cc4ccc(-c5ncc(C(=O)NC)cc5-c5ccccc5)cc4)CC3)c2c1 [compound 6]")
112
>>> recorded_value("C=CC(=O)Nc1ccc2[nH]c(=O)n(C3CCN(Cc4ccc(-c5ncc(C(=O)Nc6cccc(N)c6)cc5-c5ccccc5)cc4)CC3)c2c1 [compound 18]")
91
>>> recorded_value("C=CC(=O)Nc1ccc2[nH]c(=O)n(C3CCN(Cc4ccc(-c5ncc(C(=O)N6CCCC6)cc5-c5ccccc5)cc4)CC3)c2c1 [compound 8]")
4570
>>> recorded_value("C=CC(=O)Nc1ccc2[nH]c(=O)n(C3CCN(Cc4ccc(-c5ncc(Cc6cn[nH]c6)cc5-c5ccccc5)cc4)CC3)c2c1 [compound 14]")
527

Let's switch to this compound now.
Consider the compound C=CC(=O)Nc1ccc2[nH]c(=O)n(C3CCN(Cc4ccc(-c5ncc(Cn6ccnc6)cc5-c5ccccc5)cc4)CC3)c2c1 [compound 11] and give its recorded IC50. 643

###

SYSTEM: Akt2 (Homo sapiens, UniProt P31751)
Sequence (P31751 whole entry): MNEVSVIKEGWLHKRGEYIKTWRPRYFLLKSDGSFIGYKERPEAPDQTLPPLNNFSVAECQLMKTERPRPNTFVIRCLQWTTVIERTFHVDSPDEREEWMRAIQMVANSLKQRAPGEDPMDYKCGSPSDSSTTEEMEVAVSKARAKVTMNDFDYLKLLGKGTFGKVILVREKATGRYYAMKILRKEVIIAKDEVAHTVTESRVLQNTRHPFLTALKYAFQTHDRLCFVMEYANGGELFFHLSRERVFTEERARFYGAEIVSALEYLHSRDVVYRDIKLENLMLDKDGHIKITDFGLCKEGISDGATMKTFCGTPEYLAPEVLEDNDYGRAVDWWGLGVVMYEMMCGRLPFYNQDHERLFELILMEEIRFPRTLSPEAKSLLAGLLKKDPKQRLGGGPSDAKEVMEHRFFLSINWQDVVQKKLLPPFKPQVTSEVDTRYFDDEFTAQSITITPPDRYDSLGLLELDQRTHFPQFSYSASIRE
METHOD: STK HTRF KinEASE activity-based assay (IC50)
TEST PARAMETERS: HTRF IC50 Akt2, Mean, mean of replicates
MEASURED QUANTITY: IC50 (nM)
Numbers only, in nM.

Before answering, review these 5 worked examples.
>>> recorded_value("C=CC(=O)Nc1ccc2[nH]c(=O)n(C3CCN(Cc4ccc(-c5ncc(Cc6cccc(N)c6)cc5-c5ccccc5)cc4)CC3)c2c1")
133
>>> recorded_value("C=CC(=O)Nc1ccc2[nH]c(=O)n(C3CCN(Cc4ccc(-c5ncc(Cc6cccc(O)c6)cc5-c5ccccc5)cc4)CC3)c2c1")
682
>>> recorded_value("C=CC(=O)Nc1ccc2[nH]c(=O)n(C3CCN(Cc4ccc(-c5ncc(Cc6ccc(N)nc6)cc5-c5ccccc5)cc4)CC3)c2c1")
175
>>> recorded_value("C=CC(=O)Nc1ccc2[nH]c(=O)n(C3CCN(Cc4ccc(-c5ncc(C(=O)Nc6cnn(C)c6)cc5-c5ccccc5)cc4)CC3)c2c1")
53.5
>>> recorded_value("C=CC(=O)Nc1ccc2[nH]c(=O)n(C3CCN(Cc4ccc(-c5ncc(CN6CCCC6)cc5-c5ccccc5)cc4)CC3)c2c1")
479

Lab note: each compound below needs its IC50 filled in.
1. C=CC(=O)Nc1ccc2[nH]c(=O)n(C3CCN(Cc4ccc(-c5ncc(Cn6ccnc6)cc5-c5ccccc5)cc4)CC3)c2c1
2. C=CC(=O)Nc1ccc2[nH]c(=O)n(C3CCN(Cc4ccc(-c5ncc(CO)cc5-c5ccccc5)cc4)CC3)c2c1
3. C=CC(=O)Nc1ccc2[nH]c(=O)n(C3CCN(Cc4ccc(-c5ncc(CNCC(C)C)cc5-c5ccccc5)cc4)CC3)c2c1
4. C=CC(=O)Nc1ccc2[nH]c(=O)n(C3CCN(Cc4ccc(-c5ncc(Cc6cnn(C)c6)cc5-c5ccccc5)cc4)CC3)c2c1
5. C=CC(=O)Nc1ccc2[nH]c(=O)n(C3CCN(Cc4ccc(-c5ncc(C)cc5-c5ccccc5)cc4)CC3)c2c1
6. C=CC(=O)Nc1ccc2[nH]c(=O)n(C3CCN(Cc4ccc(-c5ncccc5-c5ccccc5)cc4)CC3)c2c1

76.1
961
4210
251
150
599

Sourced from paper PMC8421423
